Test: mn = molality of the nth substance listed, in mol/kg
Conditions: 323.15 K; 100 kPa; Liquid; Vibrating tube method; m1 = 0.3
Listed here: items and their measured mass density.

{"COMPOUND": "C[C@H](N)C(=O)O [(S)-2-aminopropanoic acid] + O", "mass density (kg/m3)": 996.24}
{"COMPOUND": "CC(C)[C@H](N)C(=O)O [L-valine] + O", "mass density (kg/m3)": 995.54}
{"COMPOUND": "NCC(=O)O [2-aminoacetic acid] + O", "mass density (kg/m3)": 997.11}
{"COMPOUND": "C[C@@H](O)[C@H](N)C(=O)O [L-threonine] + O", "mass density (kg/m3)": 1000.01}
{"COMPOUND": "N=C(N)NCCC[C@H](N)C(=O)O [L-arginine] + O", "mass density (kg/m3)": 1001.92}
